Below, each of the compounds is paired with its reported max response value.
- Test system: CRL-7250
- ASSAY PROCEDURE: Cytotoxic Profiling of Annotated Libraries Using Quantitative High-Throughput Screening (AID 1296008); also: % is scaled to controls: 0 for no effect and ±100 for the full control effect; nearly all actives have a fitted effect of over 60% in size
- TEST CONTEXT: Five cell lines viability, CellTiter-Glo ATP luminescence, 48-72 h; hits give low values
Records with an inconclusive call do not appear.
Answer in %, number only, no unit symbol.

Past entries and their recorded results:
O=C(/C=C/c1ccc(O)c(O)c1)O[C@H]1[C@@H]2C=CO[C@@H](O[C@@H]3O[C@H](CO)[C@@H](O)[C@H](O)[C@H]3O)[C@@H]2[C@@]2(CO)O[C@@H]12 ... -3.33
COc1cccc2c1c(O)c(C(=O)N(C)c1ccc(C(F)(F)F)cc1)c(=O)n2C ... -1.12

# lookup: CC1=C2C[C@H]3OC(=O)[C@H](O)[C@@]4(O)[C@@H](C)[C@@H](O)[C@H](O)C([C@@]2(C)[C@H](O)[C@@H](O)C1)[C@@]34C (some centres undefined) on CRL-7250, max response = -2.09

# lookup: CC(C(=O)Nc1cc(C#N)ccc1CCCC(=O)O)c1ccc(F)c2ccccc12 (centres undefined) on CRL-7250, max response = -4.54

# lookup: C/C=C/C1OC2=C(C(=O)OC2(C)O)C(O)C1O (centres undefined) on CRL-7250, max response = -6.2

# lookup: COc1ccc(N2CCN(CCCNC(=O)Cn3c(=O)c4cccn4c4c(C)ccnc43)CC2)cc1 on CRL-7250, max response = -6.16

# lookup: CC1=C[C@H]2[C@@H](CC1=O)[C@H](C)C[C@H](O)[C@H]2C(C)C on CRL-7250, max response = -22.7

# lookup: C[C@@H]1C[C@@H](O)[C@@]23CO[C@]2(CO)CCC[C@@H]3[C@@]12C[C@@H](c1ccoc1)OC2=O on CRL-7250, max response = -8.12

# lookup: COc1c(C)c(OCC=C(C)C)cc2c1COC2=O on CRL-7250, max response = -4.58
